Assay: Clearance in rat at 0.4 mg/kg, iv and 1 mg/kg, po
Format: ADME, organism-based
Details: in vivo
measurement.kind: clearance (mL/min/kg)
One number for each entry, in mL/min/kg.

Kindly note the recorded clearance for CN1CCN(CCOc2n[nH]c3ncnc(Nc4ccc(OCc5ccccn5)c(Cl)c4)c23)CC1 , which is 41

====

Target: Receptor tyrosine-protein kinase erbB-2 (Homo sapiens, UniProt P04626)
Sequence (P04626 whole entry): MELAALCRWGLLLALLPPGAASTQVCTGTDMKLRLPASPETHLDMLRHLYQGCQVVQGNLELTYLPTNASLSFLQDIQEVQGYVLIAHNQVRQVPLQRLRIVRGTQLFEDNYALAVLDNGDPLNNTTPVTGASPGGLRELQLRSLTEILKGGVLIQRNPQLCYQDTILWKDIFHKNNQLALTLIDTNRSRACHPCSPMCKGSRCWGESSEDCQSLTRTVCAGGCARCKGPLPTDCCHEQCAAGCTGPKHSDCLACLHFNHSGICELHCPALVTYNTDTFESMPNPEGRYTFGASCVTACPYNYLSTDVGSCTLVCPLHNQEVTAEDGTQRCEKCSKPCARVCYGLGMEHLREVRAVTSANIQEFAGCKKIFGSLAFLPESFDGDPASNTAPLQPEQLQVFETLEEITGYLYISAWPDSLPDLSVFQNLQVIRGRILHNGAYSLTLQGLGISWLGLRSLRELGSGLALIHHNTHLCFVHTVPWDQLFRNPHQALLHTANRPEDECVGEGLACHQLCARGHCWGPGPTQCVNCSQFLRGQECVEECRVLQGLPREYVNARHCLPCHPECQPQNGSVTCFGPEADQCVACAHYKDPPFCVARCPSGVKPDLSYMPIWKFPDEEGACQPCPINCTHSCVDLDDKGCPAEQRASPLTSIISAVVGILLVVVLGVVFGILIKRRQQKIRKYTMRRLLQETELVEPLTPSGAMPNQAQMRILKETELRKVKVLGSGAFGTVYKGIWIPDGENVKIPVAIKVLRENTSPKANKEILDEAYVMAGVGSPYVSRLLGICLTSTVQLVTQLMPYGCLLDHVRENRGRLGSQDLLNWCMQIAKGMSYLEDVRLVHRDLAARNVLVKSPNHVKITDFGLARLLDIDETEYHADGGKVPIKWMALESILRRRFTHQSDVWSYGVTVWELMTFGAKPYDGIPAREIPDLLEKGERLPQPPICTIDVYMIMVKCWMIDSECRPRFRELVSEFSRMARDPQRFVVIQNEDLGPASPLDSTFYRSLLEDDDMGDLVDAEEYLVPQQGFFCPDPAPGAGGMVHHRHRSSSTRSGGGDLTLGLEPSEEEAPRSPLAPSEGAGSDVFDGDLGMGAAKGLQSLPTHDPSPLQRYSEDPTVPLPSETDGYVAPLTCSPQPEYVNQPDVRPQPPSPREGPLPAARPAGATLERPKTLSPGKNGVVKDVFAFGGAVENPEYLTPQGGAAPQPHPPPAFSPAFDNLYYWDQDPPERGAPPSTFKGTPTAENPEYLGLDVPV
Assay: Inhibition of erbB2
measurement.kind: IC50 (nM)
One number for each entry, in nM.

Consider the following illustrative entries.
- record.smiles: "Cc1ccc(Oc2ccc(Nc3ncnc4[nH]nc(OCCN5CCC(O)CC5)c34)cc2C)cn1"
  IC50, nM: 11
- record.smiles: "Cc1ccc(Oc2ccc(Nc3ncnc4[nH]nc(OCCN5CCC(O)CC5)c34)cc2F)cn1"
  IC50, nM: 5
- record.smiles: "OC1CCN(CCOc2n[nH]c3ncnc(Nc4ccc(OCc5ccccn5)c(Cl)c4)c23)CC1"
  IC50, nM: 5

Attention now turns to another entry.
Kindly note the recorded IC50 for COC1CCN(CCOc2n[nH]c3ncnc(Nc4ccc(OCc5ccccn5)c(Cl)c4)c23)CC1 , which is 4
